tested on: c-Src; assay: phosphorylation enrichment, bacterial display (enrichment ratio); higher = better substrate or ligand; peptides without Tyr show the background
Please assign a class to every record based on measured phosphorylation enrichment, with ranges group A = under 0.5, group B = from 0.5 up to 0.9, group C = 0.9 and over

TETGRYEILTE; group A
SPPILYSFYLD [FCRL6_Y239]; group C
VLAAQYTTVGR [SGSH_Y240_D235V]; group A

(Q) Where would LLSVAYKNVVR [YWHAZ_Y48_G53R] land among the classes by reported phosphorylation enrichment?
(A) group B

(Q) Would you mind doing CTLNVYRQLHN [LUZP1_Y1036_S1034N] as well?
(A) group A

----------
molecular target: MERTK (UniProt Q12866); test: phosphorylation enrichment, bacterial display (enrichment ratio); higher = better substrate or ligand; peptides without Tyr show the background
Sequence (Q12866 whole entry, looked up): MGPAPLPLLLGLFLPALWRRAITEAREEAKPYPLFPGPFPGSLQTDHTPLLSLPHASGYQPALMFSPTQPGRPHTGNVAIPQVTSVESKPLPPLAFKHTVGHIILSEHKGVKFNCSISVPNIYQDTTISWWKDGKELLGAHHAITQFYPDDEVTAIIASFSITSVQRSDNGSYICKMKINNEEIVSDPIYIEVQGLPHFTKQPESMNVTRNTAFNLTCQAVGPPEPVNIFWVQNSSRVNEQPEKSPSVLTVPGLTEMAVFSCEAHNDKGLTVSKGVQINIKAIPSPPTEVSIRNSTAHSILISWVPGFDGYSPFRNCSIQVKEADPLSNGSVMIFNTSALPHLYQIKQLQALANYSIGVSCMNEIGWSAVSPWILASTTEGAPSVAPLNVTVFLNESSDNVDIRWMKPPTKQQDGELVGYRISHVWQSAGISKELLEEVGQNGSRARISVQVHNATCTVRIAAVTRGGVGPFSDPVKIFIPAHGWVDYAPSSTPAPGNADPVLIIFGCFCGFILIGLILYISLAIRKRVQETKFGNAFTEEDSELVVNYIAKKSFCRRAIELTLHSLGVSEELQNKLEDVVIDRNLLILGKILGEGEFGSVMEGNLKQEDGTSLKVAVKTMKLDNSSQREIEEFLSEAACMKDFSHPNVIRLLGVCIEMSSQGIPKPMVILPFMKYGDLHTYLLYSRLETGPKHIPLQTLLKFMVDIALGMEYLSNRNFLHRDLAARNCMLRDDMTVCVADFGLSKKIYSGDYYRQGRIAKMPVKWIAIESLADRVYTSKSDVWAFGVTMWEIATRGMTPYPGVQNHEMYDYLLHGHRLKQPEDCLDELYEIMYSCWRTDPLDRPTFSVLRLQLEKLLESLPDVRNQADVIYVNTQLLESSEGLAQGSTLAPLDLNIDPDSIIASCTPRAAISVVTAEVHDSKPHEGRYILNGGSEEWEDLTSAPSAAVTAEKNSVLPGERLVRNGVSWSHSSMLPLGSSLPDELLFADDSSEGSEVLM
RECORDED ENDPOINT: phosphorylation enrichment

// worked examples, phosphorylation enrichment included
LVSCAYQVARG [FGFR1_Y605]; 0.424
IGEGTYGVLYK [CDK2_Y15_V18L]; 2.63
GRQGIYTENKR [GPR143_Y231_E235K]; 0.53

Take each entry in turn and give its phosphorylation enrichment.
1. STAPSYGNPSS [CD19_Y378_G373S]
2. LDAGEYCVPRG [BEX1_Y43]
3. KGELRYMHSRV [ABCD1_Y281]
4. SLLLSYYLIKW [NUP160_Y773_P768S]
5. SFGENYDNSKS [MAN1B1_Y60]
6. KGKLIYLLRDS [NXPE1_Y350_G353R]
7. STKELYEKFMI
8. DQVEQCKKELE [LMNA_Y259_Y259C]

(A)
0.402
0.866
0.378
0.649
0.567
0.443
0.872
0.49

----------
tested on: c-Src; assay: phosphorylation enrichment, bacterial display (enrichment ratio); higher = better substrate or ligand; peptides without Tyr show the background
Classification field: Yes = phosphorylation enrichment at or over 0.9; No = phosphorylation enrichment under 0.9.

// known answers, use as guide
RFLRGYEQDAY [HLA-A_Y137_R138E]; No
RFGRKYKKVRF [F8_Y442_I438F]; Yes
HFVFFYSFLLK [PTEN_Y178_R173H_YF]; Yes
PARLEYFENEK [IRS1_Y46_YF]; No

(Q) Reported phosphorylation enrichment at or above 0.9? RAIGFYSATSK [FAM120A_Y328_YF]
(A) No

(Q) Would you mind doing KIIRRYVSSEG [ANK2_Y3907] as well?
(A) No

(Q) Would you mind doing VFDMLYQVANL [USP24_Y1087_L1089V] as well?
(A) Yes

(Q) Would you mind doing VDTAMYATMQR [TPO_Y55] as well?
(A) Yes

(Q) Would you mind doing IMICAYLLHRG [PTEN_Y138_V133I] as well?
(A) No

----------
molecular target: FGFR3 (UniProt P22607); experiment: phosphorylation enrichment, bacterial display (enrichment ratio); higher = better substrate or ligand; peptides without Tyr show the background
Sequence (P22607 whole entry, looked up): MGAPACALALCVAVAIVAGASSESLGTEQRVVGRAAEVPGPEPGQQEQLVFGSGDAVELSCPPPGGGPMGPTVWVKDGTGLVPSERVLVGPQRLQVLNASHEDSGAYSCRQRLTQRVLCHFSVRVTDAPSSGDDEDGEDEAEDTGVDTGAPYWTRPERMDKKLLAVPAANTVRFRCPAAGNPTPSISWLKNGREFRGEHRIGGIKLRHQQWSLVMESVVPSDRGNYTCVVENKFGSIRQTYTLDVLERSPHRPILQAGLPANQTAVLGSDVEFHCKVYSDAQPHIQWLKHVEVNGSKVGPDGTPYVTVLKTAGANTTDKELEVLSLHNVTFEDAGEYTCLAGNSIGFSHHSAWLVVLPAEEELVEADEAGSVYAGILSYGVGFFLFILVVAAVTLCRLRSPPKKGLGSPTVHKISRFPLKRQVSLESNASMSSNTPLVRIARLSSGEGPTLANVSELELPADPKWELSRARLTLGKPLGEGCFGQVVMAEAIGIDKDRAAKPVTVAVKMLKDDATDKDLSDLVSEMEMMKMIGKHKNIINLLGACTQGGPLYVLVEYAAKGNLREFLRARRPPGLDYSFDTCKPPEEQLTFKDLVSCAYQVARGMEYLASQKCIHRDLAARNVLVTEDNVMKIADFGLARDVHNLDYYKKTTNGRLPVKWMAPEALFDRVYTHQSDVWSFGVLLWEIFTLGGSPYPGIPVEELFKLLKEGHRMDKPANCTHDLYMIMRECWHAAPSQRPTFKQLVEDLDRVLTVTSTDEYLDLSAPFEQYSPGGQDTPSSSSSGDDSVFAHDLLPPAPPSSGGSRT
Classification field: 1 = phosphorylation enrichment at or over 0.9; 0 = phosphorylation enrichment under 0.9.

// known answers, use as guide
QGFDTYFGYLL [ARSB_Y165_R160Q]; 1
FEEDSYVERSQ [RET_Y905_K907E_YF]; 0
FRQNVYIPGSN [PCDHGA1_Y895_YF]; 0
SLALFYRNVYH [RBL1_Y792_K794N]; 0
HVPEEYKPKQG [SAXO2_Y37]; 0
KPMDTYFDSTR [DYNC2H1_Y2230_YF]; 0

(Q) Reported phosphorylation enrichment at or above 0.9? DVSVVYSEVKT [FCRL4_Y493]
(A) 0

(Q) Would you mind doing HKDNNYVSMWF [PAPOLG_Y432] as well?
(A) 1

(Q) Would you mind doing HNQDDYSFPSR [LDLR_Y845_G844D_YF] as well?
(A) 0

(Q) Would you mind doing SFGENYDNSKS [MAN1B1_Y60] as well?
(A) 0

(Q) Would you mind doing CSEETYRLMLQ [RET_Y981_M980T] as well?
(A) 1

(Q) Would you mind doing AQAERYDDMAA [YWHAG_Y20_E15A] as well?
(A) 0

----------
biological target: SHP2-C SH2; assay: SH2 binding enrichment of the phosphorylated peptide, bacterial display (enrichment ratio); higher = better substrate or ligand; peptides without Tyr show the background;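 note: peptide library displayed on the E. coli surface as eCPX fusions, selected cells deep-sequenced, score is each peptide's frequency after selection divided by its frequency in the input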
RECORDED ENDPOINT: SH2 binding enrichment
Numbers only.

Take each entry in turn and give its SH2 binding enrichment.
1. FEELVYETVRV [FSHB_Y76_K72E]
2. DKMEAYNIDET [TEKT4_Y210]
3. VFDMLYQVANL [USP24_Y1087_L1089V]
4. ARMTNCGLPRY [TSPAN12_Y138_Y138C]
5. RVEDAYILTCN [CCT6A_Y229]
6. KDFNKYVAYIE [KDM4B_Y31]
7. TLQTMYGCDVG [HLA-B_Y123_S121T]

(A)
0.702
0.685
1
1
0.54
1.14
0.729

----------
test system: Fer (mouse); assay: phosphorylation enrichment, bacterial display (enrichment ratio); higher = better substrate or ligand; peptides without Tyr show the background
Assign phosphorylation enrichment to each entry below.

// worked examples, phosphorylation enrichment included
LNPLIYSLRNK [OR5R1_Y290]; 1.21
TENAGYYFRIS; 0.453
SESSFYKSLNL [NGEF_Y289_A286S_YF]; 0.562

Take each entry in turn and give its phosphorylation enrichment.
1. EMQAAYQKVVA [HBD_Y131_Q126E]
2. APQYTYAQGGQ [FLNA_Y1763]
3. CKQGKYLNWDA [ATM_Y54_S49C]

(A)
[0.446, 0.409, 0.397]

(Q) Can you share its phosphorylation enrichment? I mean this sequence: KDHRDYKFQPR [SOX9_Y172_P170R_YF]
(A) 0.388

----------
target: FGFR3 (UniProt P22607); assay: phosphorylation enrichment, bacterial display (enrichment ratio); higher = better substrate or ligand; peptides without Tyr show the background
Assign phosphorylation enrichment to each entry below.
Give bare numbers.

GPKFGYDEIDN [ACOX1_Y232]; 0.527
LEVETYRRLLD [KRT12_Y429_I426V]; 0.625
DQVEQCKKELE [LMNA_Y259_Y259C]; 0.733
HNLFSYPTKHE [MYO3A_Y1396_YF]; 0.738
KSIQLYDTPFE [SHB_Y297_G293S_YF]; 0.683

Take each entry in turn and give its phosphorylation enrichment.
1. FPPTHYIRRVP [SLC4A11_Y820_YF]
2. TKQLTYEEQYL [PIK3C3_Y310_D314Y]
3. RRFVFYFSFLL [PTEN_Y177_YF]
4. QMQAAYQKAVA [HBD_Y131_V134A]

(A)
1. 0.468
2. 0.766
3. 0.608
4. 0.508

Take each entry in turn and give its phosphorylation enrichment.
1. RGYRQDAYDGK [HLA-A_Y140]
2. TLNHQYDYTFH [CSNK1A1_Y292_D297H]
3. MVIPNYSSRTE [UROC1_Y185]
4. RLLVVYPWTQR [HBB_Y36]

(A)
[0.509, 1.38, 0.416, 0.722]

(Q) Can you share its phosphorylation enrichment? I mean this sequence: `STKELYEKFMI`
(A) 0.492

----------
target: MERTK (UniProt Q12866); assay: phosphorylation enrichment, bacterial display (enrichment ratio); higher = better substrate or ligand; peptides without Tyr show the background
Classification field: Condition met = phosphorylation enrichment at or over 0.5; Condition not met = phosphorylation enrichment under 0.5.

// known answers, use as guide
CSHKFYGKQCC [ADAMTS16_Y1211]; Condition not met
PKGTGYIKTES [STAT1_Y701_L706S]; Condition met
FRARAYSFRGP [CHGA_Y381_G382S]; Condition met
EEQKRYFNAMK [SCN5A_Y1494_K1493R_YF]; Condition not met

(Q) Reported phosphorylation enrichment at or above 0.5? SPPILYSFYLD [FCRL6_Y239]
(A) Condition met

(Q) Would you mind doing AAVDNYCRHNF [HLA-DRB1_Y107_T106N_YF] as well?
(A) Condition not met

(Q) Would you mind doing SMGMKYLEEKN [ZAP70_Y451] as well?
(A) Condition not met

(Q) Would you mind doing RASSSYRETPS [SORBS1_Y79] as well?
(A) Condition met

----------
system: c-Abl (mouse); experiment: phosphorylation enrichment, bacterial display (enrichment ratio); higher = better substrate or ligand; peptides without Tyr show the background
Classification field: Y = phosphorylation enrichment at or over 0.7; N = phosphorylation enrichment under 0.7.

// known answers, use as guide
CPSLPYSPVSS [CAMKK2_Y128]; N
GIVEDYRPPVY [ACVRL1_Y421_F425V]; N
FSALDYKIFFF [WDPCP_Y210_L205F_YF]; Y
NTYEKYWLFYQ [GATM_Y103_P105L]; Y
VEDQFYCVDCF [FHL1_Y208_YF]; Y

(Q) Reported phosphorylation enrichment at or above 0.7? CVGGFYGGCNE [CTSC_Y352_Y347C]
(A) N

(Q) Would you mind doing HPFHVYPQPGM [BAG3_Y114] as well?
(A) Y

(Q) Would you mind doing DSFATYFRWVL [H2BW1_Y84_R87W] as well?
(A) Y

(Q) Would you mind doing SSWPGYVRPLP [HSPB1_Y54] as well?
(A) N
